Biological target: Melanocortin receptor 4 (Mus musculus, UniProt P56450)
Sequence (P56450 whole entry): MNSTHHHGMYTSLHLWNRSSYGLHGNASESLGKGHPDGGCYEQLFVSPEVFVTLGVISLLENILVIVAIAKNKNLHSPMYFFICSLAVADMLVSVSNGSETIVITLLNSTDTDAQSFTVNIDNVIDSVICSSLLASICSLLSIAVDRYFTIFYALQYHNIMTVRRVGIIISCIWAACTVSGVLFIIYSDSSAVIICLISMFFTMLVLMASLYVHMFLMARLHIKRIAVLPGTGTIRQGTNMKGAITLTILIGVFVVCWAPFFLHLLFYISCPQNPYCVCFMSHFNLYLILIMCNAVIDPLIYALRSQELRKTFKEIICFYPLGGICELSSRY
Assay: Antagonist activity at mouse melanocortin receptor 4 expressed in HEK293 cells assessed as inhibition of NDP-MSH-induced cAMP accumulation incubated for 2 hrs by cAMP Alpha-screen assay based Schild analysis
Format: functional, cell-based
Conditions: read-out: pA2 (converted)
Square brackets hold non-standard residues; d marks the D form. Peptide text beside a SMILES is read from it. dPhe(4-I) = N[C@H](Cc1ccc(I)cc1)C(=O)O; 2Nal = N[C@@H](Cc1ccc2ccccc2c1)C(=O)O; d2Nal = N[C@H](Cc1ccc2ccccc2c1)C(=O)O
readoutLabel: Kb (nM)
I only need the number, in nM, no unit after it.

compound	quantityUnit	Kb
CC(=O)N[C@H](Cc1ccc2ccccc2c1)C(=O)N[C@@H](CCCNC(=N)N)C(=O)N[C@@H](Cc1ccc2ccccc2c1)C(=O)N[C@H](CCCCN)C(N)=O (Ac-[d2Nal]R[2Nal][dK]-NH2)	nM	15.8

Prompt line: Could you share which Kb value was measured for CC(=O)N[C@H](Cc1ccc(I)cc1)C(=O)N[C@H](Cc1ccc2ccccc2c1)C(=O)N[C@H](Cc1ccc2ccccc2c1)C(=O)N[C@H](CCCCN)C(N)=O (Ac-[dPhe(4-I)][d2Nal][d2Nal][dK]-NH2) ?
Response line: 501

* * *

Molecular target: Melanocortin receptor 3 (Mus musculus, UniProt P33033)
Sequence (P33033 whole entry): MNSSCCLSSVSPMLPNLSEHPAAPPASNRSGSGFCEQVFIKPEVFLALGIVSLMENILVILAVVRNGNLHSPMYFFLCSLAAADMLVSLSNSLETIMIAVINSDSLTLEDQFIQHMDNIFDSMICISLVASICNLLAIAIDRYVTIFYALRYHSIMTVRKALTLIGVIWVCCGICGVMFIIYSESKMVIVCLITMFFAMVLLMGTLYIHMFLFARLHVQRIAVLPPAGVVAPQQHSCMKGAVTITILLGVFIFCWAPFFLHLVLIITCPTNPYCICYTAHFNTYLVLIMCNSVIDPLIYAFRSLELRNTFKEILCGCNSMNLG
Assay: Antagonist activity at mouse melanocortin receptor 3 expressed in HEK293 cells assessed as inhibition of NDP-MSH-induced cAMP accumulation incubated for 2 hrs by cAMP Alpha-screen assay based Schild analysis
Type: functional, cell-based
Details: read-out: pA2 (converted)
Square brackets hold non-standard residues; d marks the D form. Peptide text beside a SMILES is read from it. dPhe(4-I) = N[C@H](Cc1ccc(I)cc1)C(=O)O; d2Nal = N[C@H](Cc1ccc2ccccc2c1)C(=O)O
readoutLabel: Kb

molecule	systemName	valueReported
CC(=O)N[C@H](Cc1ccc(I)cc1)C(=O)N[C@@H](CCCNC(=N)N)C(=O)N[C@H](Cc1ccc2ccccc2c1)C(=O)N[C@H](Cc1ccc2ccccc2c1)C(N)=O (Ac-[dPhe(4-I)]R[d2Nal][d2Nal]-NH2)	Melanocortin receptor 3 (Mus musculus, UniProt P33033)	794 nM
CC(=O)N[C@H](Cc1ccc2ccccc2c1)C(=O)N[C@H](Cc1ccc2ccccc2c1)C(=O)N[C@H](Cc1ccc(I)cc1)C(=O)N[C@@H](CCCNC(=N)N)C(N)=O (Ac-[d2Nal][d2Nal][dPhe(4-I)]R-NH2)	Melanocortin receptor 3 (Mus musculus, UniProt P33033)	> 3160 nM

Consider the record given below.
Prompt line: Could you share which Kb value was measured for CC(=O)N[C@H](Cc1ccc2ccccc2c1)C(=O)N[C@H](Cc1ccc2ccccc2c1)C(=O)N[C@@H](Cc1ccc2ccccc2c1)C(=O)N[C@@H](CCCNC(=N)N)C(N)=O ?
Response line: > 3160 nM

* * *

Molecular target: Melanocortin receptor 4 (Mus musculus)
Assay: Antagonist activity at mouse melanocortin receptor 4 expressed in HEK293 cells assessed as inhibition of NDP-MSH-induced cAMP accumulation incubated for 2 hrs by cAMP Alpha-screen assay based Schild analysis
Assay type: functional, cell-based
Conditions: read-out: pA2 (converted)
Square brackets hold non-standard residues; d marks the D form. Peptide text beside a SMILES is read from it. dPhe(4-I) = N[C@H](Cc1ccc(I)cc1)C(=O)O; 2Nal = N[C@@H](Cc1ccc2ccccc2c1)C(=O)O; d2Nal = N[C@H](Cc1ccc2ccccc2c1)C(=O)O
Recorded Kb values for a group of molecules are listed next.
I only need the number, in nM, no unit after it.

molecule	systemName	valueReported
CC(=O)N[C@H](Cc1ccc2ccccc2c1)C(=O)N[C@@H](CCCNC(=N)N)C(=O)N[C@H](Cc1ccc2ccccc2c1)C(=O)N[C@H](Cc1ccc2ccccc2c1)C(N)=O (Ac-[d2Nal]R[d2Nal][d2Nal]-NH2)	Melanocortin receptor 4 (Mus musculus)	501
CC(=O)N[C@H](Cc1ccc2ccccc2c1)C(=O)N[C@@H](CCCNC(=N)N)C(=O)N[C@@H](Cc1ccc2ccccc2c1)C(=O)N[C@@H](CCCNC(=N)N)C(N)=O (Ac-[d2Nal]R[2Nal]R-NH2)	Melanocortin receptor 4 (Mus musculus)	1.58
CC(=O)N[C@H](Cc1ccc(I)cc1)C(=O)N[C@@H](CCCNC(=N)N)C(=O)N[C@@H](Cc1c[nH]c2ccccc12)C(=O)N[C@H](CCCCN)C(N)=O (Ac-[dPhe(4-I)]RW[dK]-NH2)	Melanocortin receptor 4 (Mus musculus)	25.1

Prompt line: Could you share which Kb value was measured for CC(=O)N[C@H](Cc1ccc2ccccc2c1)C(=O)N[C@@H](CCCNC(=N)N)C(=O)N[C@@H](Cc1c[nH]c2ccccc12)C(=O)N[C@H](CCCCN)C(N)=O (Ac-[d2Nal]RW[dK]-NH2) ?
Response line: 20

* * *

Biological target: Melanocyte-stimulating hormone receptor (Mus musculus) (UniProt Q01727)
Sequence (Q01727 whole entry, looked up): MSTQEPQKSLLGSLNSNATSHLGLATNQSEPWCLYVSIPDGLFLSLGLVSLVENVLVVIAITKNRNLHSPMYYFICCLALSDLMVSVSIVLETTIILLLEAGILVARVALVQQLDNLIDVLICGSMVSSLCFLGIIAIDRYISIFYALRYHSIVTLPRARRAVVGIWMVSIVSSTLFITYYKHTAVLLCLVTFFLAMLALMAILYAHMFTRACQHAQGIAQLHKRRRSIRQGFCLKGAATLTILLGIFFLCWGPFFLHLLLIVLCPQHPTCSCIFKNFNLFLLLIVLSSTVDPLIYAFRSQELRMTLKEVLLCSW
Assay: Agonist activity at mouse MC1R expressed in HEK293 cells assessed as induction of cAMP level at 100 uM incubated for 2 hr by alphaScreen assay relative to NDP-MSH
Assay type: functional, cell-based
Square brackets hold non-standard residues; d marks the D form. Peptide text beside a SMILES is read from it. dPhe(4-I) = N[C@H](Cc1ccc(I)cc1)C(=O)O; d2Nal = N[C@H](Cc1ccc2ccccc2c1)C(=O)O
Recorded Activity values for a group of compounds are listed next.
Number plus unit, in that order.

In the examples that follow, each entry is paired with its recorded Activity.
compound	systemName	valueReported
CC(=O)N[C@H](Cc1ccc2ccccc2c1)C(=O)N[C@H](Cc1ccc2ccccc2c1)C(=O)N[C@H](Cc1ccc(I)cc1)C(=O)N[C@@H](CCCNC(=N)N)C(N)=O (Ac-[d2Nal][d2Nal][dPhe(4-I)]R-NH2)	Melanocyte-stimulating hormone receptor (Mus musculus) (UniProt Q01727)	25%
CC(=O)N[C@H](Cc1ccc2ccccc2c1)C(=O)N[C@H](Cc1ccc2ccccc2c1)C(=O)N[C@H](Cc1ccc(I)cc1)C(=O)N[C@H](CCCCN)C(N)=O (Ac-[d2Nal][d2Nal][dPhe(4-I)][dK]-NH2)	Melanocyte-stimulating hormone receptor (Mus musculus) (UniProt Q01727)	20%
CC(=O)N[C@H](Cc1ccc2ccccc2c1)C(=O)N[C@H](Cc1ccc2ccccc2c1)C(=O)N[C@H](Cc1ccc2ccccc2c1)C(=O)N[C@@H](CCCNC(=N)N)C(N)=O	Melanocyte-stimulating hormone receptor (Mus musculus) (UniProt Q01727)	30%

Consider the record given below.
Prompt line: Could you share which Activity value was measured for CC(=O)N[C@H](Cc1ccc2ccccc2c1)C(=O)N[C@H](Cc1ccc2ccccc2c1)C(=O)N[C@@H](Cc1c[nH]c2ccccc12)C(=O)N[C@H](CCCCN)C(N)=O (Ac-[d2Nal][d2Nal]W[dK]-NH2) ?
Response line: 25%

* * *

Target: Melanocortin receptor 4 (Mus musculus, UniProt P56450)
Assay: Agonist activity at mouse MC4R expressed in HEK293 cells assessed as induction of cAMP level at 100 uM incubated for 2 hr by alphaScreen assay relative to control
Format: functional, cell-based
Square brackets hold non-standard residues; d marks the D form. Peptide text beside a SMILES is read from it. dPhe(4-I) = N[C@H](Cc1ccc(I)cc1)C(=O)O; 2Nal = N[C@@H](Cc1ccc2ccccc2c1)C(=O)O; d2Nal = N[C@H](Cc1ccc2ccccc2c1)C(=O)O
readoutLabel: EC50

Prompt line: For the record CC(=O)N[C@H](Cc1ccc(I)cc1)C(=O)N[C@H](Cc1ccc2ccccc2c1)C(=O)N[C@@H](Cc1ccc2ccccc2c1)C(=O)N[C@H](CCCCN)C(N)=O (Ac-[dPhe(4-I)][d2Nal][2Nal][dK]-NH2) , what value of EC50 is listed for Melanocortin receptor 4 (Mus musculus, UniProt P56450)?
Response line: > 100 µM

* * *

Recorded Activity values for a group of compounds are listed next.
Molecular target: Melanocortin receptor 4 (Mus musculus)
Experiment: Agonist activity at mouse MC4R expressed in HEK293 cells assessed as induction of cAMP level at 100 uM incubated for 2 hr by alphaScreen assay relative to control
Type: functional, cell-based
Square brackets hold non-standard residues; d marks the D form. Peptide text beside a SMILES is read from it. dPhe(4-I) = N[C@H](Cc1ccc(I)cc1)C(=O)O; 2Nal = N[C@@H](Cc1ccc2ccccc2c1)C(=O)O; d2Nal = N[C@H](Cc1ccc2ccccc2c1)C(=O)O
I only need the number, in %, no unit after it.

In the examples that follow, each entry is paired with its recorded Activity.
compound	readoutLabel	quantityUnit	valueReported
CC(=O)N[C@H](Cc1ccc2ccccc2c1)C(=O)N[C@@H](CCCNC(=N)N)C(=O)N[C@@H](Cc1ccc2ccccc2c1)C(=O)N[C@@H](CCCNC(=N)N)C(N)=O (Ac-[d2Nal]R[2Nal]R-NH2)	Activity	%	30
CC(=O)N[C@H](Cc1ccc2ccccc2c1)C(=O)N[C@@H](CCCNC(=N)N)C(=O)N[C@H](Cc1ccc(I)cc1)C(=O)N[C@H](Cc1ccc2ccccc2c1)C(N)=O (Ac-[d2Nal]R[dPhe(4-I)][d2Nal]-NH2)	Activity	%	30

Consider the record given below.
Prompt line: Could you share which Activity value was measured for CC(=O)N[C@H](Cc1ccc2ccccc2c1)C(=O)N[C@@H](CCCNC(=N)N)C(=O)N[C@@H](Cc1c[nH]c2ccccc12)C(=O)N[C@@H](CCCNC(=N)N)C(N)=O (Ac-[d2Nal]RWR-NH2) ?
Response line: 20
